System: DENV
Experiment: microbe, parasite or virus in culture
Format: cell-based, Dengue virus (DENV-2 16681 strain)
Conditions: read-out: Infectivity EC50
pEC50: −log10 of the molar value.
readout-label: pEC50

For COc1cc(/C=C/C(=O)O)ccc1O the compound record lists pEC50 as < 4.00

---

System: DENV
Test: microbe, parasite or virus in culture
Format: cell-based, Dengue virus (DENV-2 16681 strain)
Conditions: read-out: Replication EC50
pEC50: −log10 of the molar value.
readout-label: pEC50

For COc1cc(/C=C/C(=O)O)ccc1O [Ferulic acid, ferulic acid] the compound record lists pEC50 as < 4.00
